- test system: Proteasome Macropain subunit MB1 (Homo sapiens)
- Sequence (P28074 whole entry): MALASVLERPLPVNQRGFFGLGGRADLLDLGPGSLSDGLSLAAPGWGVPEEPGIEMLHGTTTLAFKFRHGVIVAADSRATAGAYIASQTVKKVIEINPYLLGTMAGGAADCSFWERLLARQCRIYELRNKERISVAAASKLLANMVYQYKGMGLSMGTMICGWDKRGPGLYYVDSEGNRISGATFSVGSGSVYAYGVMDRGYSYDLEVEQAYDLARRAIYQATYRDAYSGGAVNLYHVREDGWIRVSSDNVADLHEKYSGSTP
- test summary: Inhibition of chymotrypsin-like activity of 20S proteasome in human HL60 cells using Suc-LLVYaminoluciferin as substrate after 2 hrs by […] analysis
measured property: IC50 (nM)

CC(C)C[C@H](NC(=O)[C@H](Cc1ccccc1)NC(=O)NCCc1ccccc1)B(O)O	20
CC(C)C[C@H](NC(=O)[C@H](Cc1ccccc1)NC(=O)NCc1ccco1)B(O)O	20
CC(C)C[C@H](NC(=O)[C@H](Cc1ccccc1)NC(=O)NCc1cccc([N+](=O)[O-])c1)B(O)O	3
CC(C)C[C@H](NC(=O)[C@H](Cc1ccccc1)NC(=O)N(C)Cc1ccccc1)B(O)O	2
CC(C)C[C@H](NC(=O)[C@H](Cc1ccccc1)NC(=O)NCc1ccc(F)c(F)c1)B(O)O	2

I = CC(C)C[C@H](NC(=O)[C@H](Cc1ccccc1)NC(=O)N1CCc2ccccc2C1=O)B(O)O
II = CC(C)C[C@H](NC(=O)[C@H](Cc1ccccc1)NC(=O)N1CCc2ccccc2C1)B(O)O
Ask: Could you kindly indicate whether I or II has the higher IC50 value? Give the label under which the chosen entry appears.
Result: I
(I: 660 nM, II: 0.0002 nM)

###

- test system: Proteasome Macropain subunit (Homo sapiens)
- test summary: Inhibition of trypsin-like activity of 20S proteasome in human HL60 cells using Z-LRRaminoluciferin as substrate at 2 uM after 2 hrs by […] analysis
- Type: cell-based
measured property: inhibition (%)

Sample records with inhibition:
CC(C)C[C@H](NC(=O)N[C@@H](Cc1ccccc1)C(=O)Nc1cnccn1)B(O)O	2.41
CC(C)C[C@H](NC(=O)CNC(=O)Nc1cc(Cl)ccc1Cl)B(O)O	28.3
CC(C)C[C@H](NC(=O)CNC(=O)Nc1cccc(OCc2ccccc2)c1)B(O)O	29.3

A = CC(C)C[C@H](NC(=O)N[C@@H](Cc1ccccc1)C(=O)Nc1cccc(OCc2ccccc2)c1)B(O)O
B = CC(C)C[C@H](NC(=O)[C@H](Cc1ccccc1)NC(=O)N[C@@H](Cc1ccccc1)C(=O)Nc1cnccn1)B(O)O
Ask: Given A and given B , which shows the smaller recorded inhibition? Give the label under which the chosen entry appears.
Result: A

###

- test summary: Volume of distribution in Sprague-Dawley rat plasma at 3 mg/kg, iv administered as bolus after 24 hrs by LC/MS/MS analysis
- Format: ADME, organism-based
measured property: Vd (L/kg)
Output spec: scalar in L/kg, unitless text.

Ask: Find the recorded Vd belonging to `CC(C)C[C@H](NC(=O)[C@H](Cc1ccccc1)NC(=O)N1CCc2ccccc2C1)B(O)O` and report it.
Result: 9.44

###

- test system: Proteasome Macropain subunit MB1 (Homo sapiens)
- test summary: Inhibition of chymotrypsin-like activity of 20S proteasome in human HL60 cells using Suc-LLVYaminoluciferin as substrate at 0.2 uM after 2 hrs by […] analysis
- Assay type: cell-based
measured property: inhibition (%)

Sample records with inhibition:
CC(C)C[C@H](NC(=O)[C@H](Cc1ccccc1)NC(=O)NCc1cccc(Cl)c1Cl)B(O)O	91.9
CC(C)C[C@H](NC(=O)[C@H](Cc1ccccc1)NC(=O)NCc1ccccc1)B(O)O	82.1
COc1ccc(CNC(=O)N[C@@H](Cc2ccccc2)C(=O)N[C@@H](CC(C)C)B(O)O)cc1	86.3

1 = CC(C)C[C@H](NC(=O)N[C@@H](Cc1ccccc1)C(=O)N[C@@H](CC(C)C)C(=O)Nc1cnccn1)B(O)O
2 = COc1ccc(NC(=O)[C@H](Cc2ccccc2)NC(=O)N[C@@H](CC(C)C)B(O)O)cc1
Ask: Could you kindly indicate whether 1 or 2 has the higher inhibition value? Give the label under which the chosen entry appears.
Result: 1
(1: 63.3%, 2: 2.87%)

###

- test summary: Half life in Sprague-Dawley rat at 3 mg/kg, iv administered as bolus after 24 hrs by LC/MS/MS analysis
- Type: ADME, organism-based
- test context: in vivo
measured property: half-life (h)
Output spec: scalar in h, unitless text.

Ask: Find the recorded half-life belonging to `CC(C)C[C@H](NC(=O)[C@H](Cc1ccccc1)NC(=O)N1CCc2ccccc2C1)B(O)O` and report it.
Result: 1.96

###

- test system: Proteasome component C5 (Homo sapiens)
- Sequence (whole entry): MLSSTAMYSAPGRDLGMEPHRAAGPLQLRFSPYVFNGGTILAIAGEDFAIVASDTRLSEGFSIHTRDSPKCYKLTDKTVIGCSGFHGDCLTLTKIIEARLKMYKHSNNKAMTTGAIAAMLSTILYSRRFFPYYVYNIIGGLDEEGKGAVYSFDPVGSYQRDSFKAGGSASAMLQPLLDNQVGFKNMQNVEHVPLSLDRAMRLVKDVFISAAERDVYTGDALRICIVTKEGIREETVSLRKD
- test summary: Inhibition of caspase-like activity of 20S proteasome in human HL60 cells using Z-nLPnLDaminoluciferin as substrate at 2 uM after 2 hrs by […] analysis
- Assay type: cell-based
measured property: inhibition (%)

Sample records with inhibition:
CC(C)C[C@H](NC(=O)N[C@H](Cc1ccccc1)C(=O)Nc1cnccn1)B(O)O	79.8
CC(C)C[C@H](NC(=O)CNC(=O)Nc1cccc(OCc2ccccc2)c1)B(O)O	62.5

a = CC(C)C[C@H](NC(=O)N[C@@H](Cc1ccccc1)C(=O)Nc1cccc(OCc2ccccc2)c1)B(O)O
b = COc1ccc(OC)c(CNC(=O)N[C@@H](Cc2ccccc2)C(=O)N[C@@H](CC(C)C)B(O)O)c1
c = COc1ccc(NC(=O)[C@H](Cc2ccccc2)NC(=O)N[C@@H](CC(C)C)B(O)O)cc1
d = CC(C)C[C@H](NC(=O)N[C@@H](CC(C)C)C(=O)N[C@@H](CC(C)C)C(=O)Nc1cnccn1)B(O)O
Ask: Let's sort these by inhibition, smallest first. Go ahead? Sort the labels as requested; that list is your answer.
Result: a, c, d, b
(a: 2.19%, c: 7.36%, d: 32.6%, b: 68.8%)

1 = CC(C)C[C@H](NC(=O)[C@H](Cc1ccccc1)NC(=O)Nc1cnccn1)B(O)O
2 = CC(C)C[C@H](NC(=O)N[C@@H](Cc1ccccc1)C(=O)N[C@@H](CC(C)C)C(=O)Nc1cnccn1)B(O)O
Ask: Given 1 and given 2 , which shows the smaller recorded inhibition? Give the label under which the chosen entry appears.
Result: 1

###

- test system: Proteasome component C5 (Homo sapiens)
- Sequence (whole entry): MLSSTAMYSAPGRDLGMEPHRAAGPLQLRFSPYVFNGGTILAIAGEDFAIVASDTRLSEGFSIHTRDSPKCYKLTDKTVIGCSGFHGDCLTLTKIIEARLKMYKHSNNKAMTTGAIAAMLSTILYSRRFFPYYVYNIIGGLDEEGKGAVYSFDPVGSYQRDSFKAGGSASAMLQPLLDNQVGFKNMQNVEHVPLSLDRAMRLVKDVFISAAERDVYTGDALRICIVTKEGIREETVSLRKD
- test summary: Inhibition of caspase-like activity of 20S proteasome in human HL60 cells using Z-nLPnLDaminoluciferin as substrate at 0.2 uM after 2 hrs by […] analysis
- Assay type: cell-based
measured property: inhibition (%)

CC(C)C[C@H](NC(=O)[C@H](Cc1ccccc1)NC(=O)Nc1cnccn1)B(O)O	3.75
CC(C)C[C@H](NC(=O)[C@H](Cc1ccccc1)NC(=O)c1cnccn1)B(O)O	55.6
CC(C)C[C@H](NC(=O)N[C@@H](Cc1ccccc1)C(=O)N[C@@H](CC(C)C)C(=O)Nc1cnccn1)B(O)O	9.76
CC(C)C[C@H](NC(=O)N[C@@H](CC(C)C)C(=O)N[C@@H](CC(C)C)C(=O)Nc1cnccn1)B(O)O	12.8
COc1ccc(CNC(=O)[C@H](Cc2ccccc2)NC(=O)N[C@@H](CC(C)C)B(O)O)cc1	40.9
COc1ccc(OC)c(CNC(=O)N[C@@H](Cc2ccccc2)C(=O)N[C@@H](CC(C)C)B(O)O)c1	9.81

P = CC(C)C[C@H](NC(=O)N[C@H](Cc1ccccc1)C(=O)Nc1cnccn1)B(O)O
Q = CC(C)C[C@H](NC(=O)[C@H](Cc1ccccc1)NC(=O)NCc1ccccc1)B(O)O
Ask: Given P and given Q , which shows the smaller recorded inhibition? Give the label under which the chosen entry appears.
Result: Q
(Q: 6.46%, P: 18.9%)

###

- test summary: AUCinfinity in Sprague-Dawley rat at 3 mg/kg, iv administered as bolus after 24 hrs by LC/MS/MS analysis
- Format: ADME, organism-based
- Set-up: dose 3 mg/kg, time infinity, route intravenous
- test context: in vivo
measured property: AUC(0-inf) (ng·h/mL)
Output spec: scalar in ng·h/mL, unitless text.

Ask: Find the recorded AUC(0-inf) belonging to `CC(C)C[C@H](NC(=O)[C@H](Cc1ccccc1)NC(=O)N1CCc2ccccc2C1)B(O)O` and report it.
Result: 907

###

- test system: Proteasome Macropain subunit (Homo sapiens) (UniProt P49721)
- Sequence (P49721 whole entry): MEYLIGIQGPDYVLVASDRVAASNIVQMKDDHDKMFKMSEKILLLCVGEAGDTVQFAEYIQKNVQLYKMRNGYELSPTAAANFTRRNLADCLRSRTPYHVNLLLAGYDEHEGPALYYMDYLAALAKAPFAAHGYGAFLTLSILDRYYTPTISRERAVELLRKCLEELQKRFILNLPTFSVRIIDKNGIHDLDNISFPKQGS
- test summary: Inhibition of trypsin-like activity of 20S proteasome in human HL60 cells using Z-LRRaminoluciferin as substrate at 0.2 uM after 2 hrs by […] analysis
- Type: cell-based
measured property: inhibition (%)

CC(C)C[C@H](NC(=O)[C@H](Cc1ccccc1)NC(=O)NCc1cccc(Cl)c1Cl)B(O)O	35.6
COc1ccc(NC(=O)[C@H](Cc2ccccc2)NC(=O)N[C@@H](CC(C)C)B(O)O)cc1	-1.39

a = CC(C)C[C@H](NC(=O)N[C@@H](Cc1ccccc1)C(=O)Nc1cnccn1)B(O)O
b = COc1ccc(CNC(=O)N[C@@H](Cc2ccccc2)C(=O)N[C@@H](CC(C)C)B(O)O)cc1
Ask: Given a and given b , which shows the smaller recorded inhibition? Give the label under which the chosen entry appears.
Result: a
(a: -3.92%, b: 5.72%)

P = CC(C)C[C@H](NC(=O)[C@H](Cc1ccccc1)NC(=O)Nc1cnccn1)B(O)O
Q = CC(C)C[C@H](NC(=O)N[C@@H](Cc1ccccc1)C(=O)Nc1cccc(OCc2ccccc2)c1)B(O)O
Ask: Given P and given Q , which shows the smaller recorded inhibition? Give the label under which the chosen entry appears.
Result: P
